Test system: MDA-MB-231 breast
Assay: NCI-60 one-dose screen, 48 h (100 = growth as untreated, 0 = no growth, -100 = all killed)
Details: 10 µM unless noted
Compounds without any hit were thinned out: in the full panel of roughly 83,000, 20% have a hit.
MEASURED METRIC: growth (%)
Provide the reading as a plain figure in %.

Reference set (4 entries):
[
  {
    "COMPOUND": "N#Cc1nc(-c2ccc(Cl)cc2)oc1S(=O)(=O)N1CCN(c2ccc(F)cc2)CC1",
    "TARGET SYSTEM": "MDA-MB-231 breast",
    "UNIT OF MEASUREMENT": "%",
    "growth": 103
  },
  {
    "COMPOUND": "CCN(CC)CC(O)COc1c(Br)c(Br)c(Br)c2c1OC(C)(C)C2 (stereo not given)",
    "TARGET SYSTEM": "MDA-MB-231 breast",
    "UNIT OF MEASUREMENT": "%",
    "growth": 44.7
  },
  {
    "COMPOUND": "COc1ccc(C(O)c2cc3c(N)c(C(=O)Nc4cccc(Br)c4)sc3nc2C)cc1 (stereo not given)",
    "TARGET SYSTEM": "MDA-MB-231 breast",
    "UNIT OF MEASUREMENT": "%",
    "growth": 2.61
  },
  {
    "COMPOUND": "COc1ccc(NC(=O)c2sc3nc(C)c(C(=O)/C=C/c4ccccc4)cc3c2N)cc1",
    "TARGET SYSTEM": "MDA-MB-231 breast",
    "UNIT OF MEASUREMENT": "%",
    "growth": 60.8
  }
]

Input "O=C(COc1ccc(-c2nc3cc(Cl)c(Cl)cc3[nH]2)cc1)N=Nc1c(O)[nH]c2ccc(Cl)cc12" , output reported growth.
76.8

Input "COc1cc(-c2csc(NC(=O)c3ccc(N4CCOCC4)c(C(F)(F)F)c3)n2)cc(OC)c1OC" , output reported growth.
71.4

Input "O=c1c2cccc3c(N4CCCC4)ccc(c32)c2nc3ccccc3n12" , output reported growth.
77.1
